tested on: Neisseria meningitidis; assay: Antimicrobial activity against Neisseria meningitidis by broth microdilution method; type: functional
reported-metric: MIC90

{"columns": ["compound", "test-target", "reported-result"],
 "data": [
  ["CO[C@H]1/C=C/O[C@@]2(C)Oc3c(C)c(O)c4c(O)c(c(/C=N/N5CCN(C)CC5)c(O)c4c3C2=O)NC(=O)/C(C)=C\\C=C\\[C@H](C)[C@H](O)[C@@H](C)[C@@H](O)[C@@H](C)[C@H](OC(C)=O)[C@@H]1C [RIFAMPIN]", "Neisseria meningitidis", "0.03 µg/mL"],
  ["CC[C@H]1OC(=O)[C@H](C)[C@@H](O[C@H]2C[C@@](C)(OC)[C@@H](O)[C@H](C)O2)[C@H](C)[C@@H](O[C@@H]2O[C@H](C)C[C@H](N(C)C)[C@H]2O)[C@](C)(O)C[C@@H](C)CN(C)[C@H](C)[C@@H](O)[C@]1(C)O [AZITHROMYCIN]", "Neisseria meningitidis", "0.12 µg/mL"]
]}

----------
test system: Neisseria meningitidis; assay: Antimicrobial activity against Neisseria meningitidis by broth microdilution method; assay type: functional

{"columns": ["substance-smiles", "result-comparator", "MIC90 [µg/mL]"],
 "data": [
  ["CC[C@H]1OC(=O)[C@H](C)C(=O)[C@H](C)[C@@H](O[C@@H]2O[C@H](C)C[C@H](N(C)C)[C@H]2O)[C@](C)(OC)C[C@@H](C)C(=O)[C@H](C)[C@H]2N(CCCCn3cnc(-c4cccnc4)c3)C(=O)O[C@]12C", "=", 0.03],
  ["CO/N=C(\\C(=O)N[C@@H]1C(=O)N2C(C(=O)O)=C(CSc3nc(=O)c(O)nn3C)CS[C@H]12)c1csc(N)n1", "≤", 0.015],
  ["CC1(C)S[C@@H]2[C@H](NC(=O)Cc3ccccc3)C(=O)N2[C@H]1C(=O)O", "=", 0.12],
  ["C[C@H]1COc2c(N3CCN(C)CC3)c(F)cc3c(=O)c(C(=O)O)cn1c23.C[C@H]1COc2c(N3CCN(C)CC3)c(F)cc3c(=O)c(C(=O)O)cn1c23.O", "≤", 0.008],
  ["CC[C@H]1OC(=O)[C@H](C)[C@@H](O[C@H]2C[C@@](C)(OC)[C@@H](O)[C@H](C)O2)[C@H](C)[C@@H](O[C@@H]2O[C@H](C)C[C@H](N(C)C)[C@H]2O)[C@](C)(O)C[C@@H](C)C(=O)[C@H](C)[C@@H](O)[C@]1(C)O", "=", 0.25]
]}

----------
Activity values for the molecules below.
system: Neisseria meningitidis; test: Antimicrobial activity against Neisseria meningitidis assessed as resistant isolate by broth microdilution method; assay type: functional
reported-metric: Activity

{"columns": ["molecule", "reported-metric", "reported-result"],
 "data": [
  ["CN(C)c1ccc(O)c2c1C[C@H]1C[C@H]3[C@H](N(C)C)C(O)=C(C(N)=O)C(=O)[C@@]3(O)C(O)=C1C2=O [MINOCYCLINE]", "Activity", "0%"],
  ["CC1(C)S[C@@H]2[C@H](NC(=O)Cc3ccccc3)C(=O)N2[C@H]1C(=O)O [PENICILLIN G]", "Activity", "0%"],
  ["O=C(O)c1cn(C2CC2)c2cc(N3CCNCC3)c(F)cc2c1=O [CIPROFLOXACIN]", "Activity", "1.9%"],
  ["CO[C@H]1/C=C/O[C@@]2(C)Oc3c(C)c(O)c4c(O)c(c(/C=N/N5CCN(C)CC5)c(O)c4c3C2=O)NC(=O)/C(C)=C\\C=C\\[C@H](C)[C@H](O)[C@@H](C)[C@@H](O)[C@@H](C)[C@H](OC(C)=O)[C@@H]1C [RIFAMPIN]", "Activity", "0%"],
  ["C[C@H]1COc2c(N3CCN(C)CC3)c(F)cc3c(=O)c(C(=O)O)cn1c23.C[C@H]1COc2c(N3CCN(C)CC3)c(F)cc3c(=O)c(C(=O)O)cn1c23.O [LEVOFLOXACIN]", "Activity", "1.9%"]
]}

----------
MIC values for the molecules below.
system: Neisseria meningitidis; test: Antimicrobial activity against Neisseria meningitidis by broth microdilution method; assay type: functional

{"columns": ["molecule", "MIC"],
 "data": [
  ["CC[C@H]1OC(=O)[C@H](C)[C@@H](O[C@H]2C[C@@](C)(OC)[C@@H](O)[C@H](C)O2)[C@H](C)[C@@H](O[C@@H]2O[C@H](C)C[C@H](N(C)C)[C@H]2O)[C@](C)(O)C[C@@H](C)C(=O)[C@H](C)[C@@H](O)[C@]1(C)O [ERYTHROMYCIN]", "≤ 0.03 µg/mL"],
  ["C[C@H]1COc2c(N3CCN(C)CC3)c(F)cc3c(=O)c(C(=O)O)cn1c23.C[C@H]1COc2c(N3CCN(C)CC3)c(F)cc3c(=O)c(C(=O)O)cn1c23.O [LEVOFLOXACIN]", "≤ 0.008 µg/mL"],
  ["CC[C@H]1OC(=O)[C@H](C)C(=O)[C@H](C)[C@@H](O[C@@H]2O[C@H](C)C[C@H](N(C)C)[C@H]2O)[C@](C)(OC)C[C@@H](C)C(=O)[C@H](C)[C@H]2N(CCCCn3cnc(-c4cccnc4)c3)C(=O)O[C@]12C [TELITHROMYCIN]", "≤ 0.015 µg/mL"],
  ["CC[C@H]1OC(=O)[C@@](C)(F)C(=O)[C@H](C)[C@@H](O[C@@H]2O[C@H](C)C[C@H](N(C)C)[C@H]2O)[C@](C)(OC)C[C@@H](C)C(=O)[C@H](C)[C@H]2N(CCCCn3cc(-c4cccc(N)c4)nn3)C(=O)O[C@]12C [SOLITHROMYCIN]", "≤ 0.015 µg/mL"]
]}

----------
test system: Neisseria meningitidis; assay: Antimicrobial activity against Neisseria meningitidis by broth microdilution method; format: functional
reported-metric: MIC90 (µg/mL)

{"columns": ["substance-smiles", "test-target", "unit-symbol", "result-comparator", "reported-result"],
 "data": [
  ["CN(C)c1ccc(O)c2c1C[C@H]1C[C@H]3[C@H](N(C)C)C(O)=C(C(N)=O)C(=O)[C@@]3(O)C(O)=C1C2=O", "Neisseria meningitidis", "µg/mL", "=", 0.25],
  ["CC[C@H]1OC(=O)[C@@](C)(F)C(=O)[C@H](C)[C@@H](O[C@@H]2O[C@H](C)C[C@H](N(C)C)[C@H]2O)[C@](C)(OC)C[C@@H](C)C(=O)[C@H](C)[C@H]2N(CCCCn3cc(-c4cccc(N)c4)nn3)C(=O)O[C@]12C", "Neisseria meningitidis", "µg/mL", "≤", 0.015],
  ["CC[C@H]1OC(=O)[C@H](C)[C@@H](O[C@H]2C[C@@](C)(OC)[C@@H](O)[C@H](C)O2)[C@H](C)[C@@H](O[C@@H]2O[C@H](C)C[C@H](N(C)C)[C@H]2O)[C@](C)(OC)C[C@@H](C)C(=O)[C@H](C)[C@@H](O)[C@]1(C)O", "Neisseria meningitidis", "µg/mL", "=", 0.12]
]}

----------
test system: Neisseria meningitidis; assay: Antimicrobial activity against Neisseria meningitidis assessed as susceptible isolate by broth microdilution method; type: functional
reported-metric: Activity (%)

{"columns": ["substance-smiles", "reported-result"],
 "data": [
  ["CO/N=C(\\C(=O)N[C@@H]1C(=O)N2C(C(=O)O)=C(CSc3nc(=O)c(O)nn3C)CS[C@H]12)c1csc(N)n1", 100],
  ["CO[C@H]1/C=C/O[C@@]2(C)Oc3c(C)c(O)c4c(O)c(c(/C=N/N5CCN(C)CC5)c(O)c4c3C2=O)NC(=O)/C(C)=C\\C=C\\[C@H](C)[C@H](O)[C@@H](C)[C@@H](O)[C@@H](C)[C@H](OC(C)=O)[C@@H]1C", 100],
  ["CC[C@H]1OC(=O)[C@H](C)[C@@H](O[C@H]2C[C@@](C)(OC)[C@@H](O)[C@H](C)O2)[C@H](C)[C@@H](O[C@@H]2O[C@H](C)C[C@H](N(C)C)[C@H]2O)[C@](C)(O)C[C@@H](C)CN(C)[C@H](C)[C@@H](O)[C@]1(C)O", 100],
  ["O=C(O)c1cn(C2CC2)c2cc(N3CCNCC3)c(F)cc2c1=O", 97.1],
  ["C[C@H]1COc2c(N3CCN(C)CC3)c(F)cc3c(=O)c(C(=O)O)cn1c23.C[C@H]1COc2c(N3CCN(C)CC3)c(F)cc3c(=O)c(C(=O)O)cn1c23.O", 97.1],
  ["CC1(C)S[C@@H]2[C@H](NC(=O)Cc3ccccc3)C(=O)N2[C@H]1C(=O)O", 84.5],
  ["CN(C)c1ccc(O)c2c1C[C@H]1C[C@H]3[C@H](N(C)C)C(O)=C(C(N)=O)C(=O)[C@@]3(O)C(O)=C1C2=O", 100]
]}
